# Tested on: Staphylococcus Epidermidis
# methodNotes: Antibacterial activity, MIC by double-microdilution method
# Assay type: cell-based
# protocolConditions: Table 2
Listed molecules paired with reported Gram-positive MIC c
A number alone suffices; assume µg/mL.

// query Which Gram-positive MIC c reading was recorded for the molecule `O.O=C(O)c1cn(C2CC2)c2cc(N3CCN(Cc4ccc(CCCN5CCNCCNCCNCC5)cc4)CC3)c(F)cc2c1=O.[Cu+2]` ?
// result 3

// query # get_value(readout='Gram-positive MIC c', item= `N=C(N)NCCN1CCNCCNCCN(CCCCc2ccc(CN3CCN(c4cc5c(cc4F)c(=O)c(C(=O)O)cn5C4CC4)CC3)cc2)CC1` )
// result 6

// query Looking for the measured Gram-positive MIC c of `N=C(N)NCCN1CCNCCNCCN(CCCc2ccc(CN3CCN(c4cc5c(cc4F)c(=O)c(C(=O)O)cn5C4CC4)CC3)cc2)CC1` , can you help?
// result 6
